Test: LNP average particle size and polydispersity by dynamic light scattering
Assay type: physicochemical
Conditions: Table 10; LNP with G00534 sgRNA:Cas9 mRNA 1:2 w/w
From the text: The LNPs have a size of about 1 to about 1,000 nm, about 10 to about 500 nm, about 20 to about 500 nm, in a sub-embodiment about 50 to about 400 nm, in a sub-embodiment about 50 to about 300 nm, in a sub-embodiment about 50 to about 200 nm, and in a sub-embodiment about 50 to about 150 nm, and in another sub-embodiment about 60 to about 120 nm. […] The average sizes (diameters) of the fully formed LNP, may be measured by dynamic light scattering on a Malvern Zetasizer. […]
Kindly supply the reported PDI values for the records listed here.

[ask] Requested read-out: PDI. Entry: CCCCC/C=C\C/C=C\CCCCCCCC(=O)OCC(COC(=O)CCCCCCC/C=C\C/C=C\CCCCC)OC(=O)CCC(CCCCCC)OC(=O)NCCN1CCCC1 (racemic) [Compound 50]
[reply] 0.050

[ask] What about CCCCC/C=C\C/C=C\CCCCCCCC(=O)OCC(COC(=O)CCCCCCC/C=C\C/C=C\CCCCC)OC(=O)CCC(CCCCCCCC)OC(=O)NCCN(C)CC (stereo not shown) [Compound 34] ?
[reply] 0.052

[ask] What about CCCCC/C=C\C/C=C\CCCCCCCC(=O)OCC(COC(=O)CCCCCCC/C=C\C/C=C\CCCCC)OC(=O)CCC(CCCCCC)OC(=O)OCCCN1CCCC1 (stereo not shown) [Compound 45] ?
[reply] 0.052

[ask] What about CCCCC/C=C\C/C=C\CCCCCCCC(=O)OCC(COC(=O)CCC(OCCCCCCCC)OCCCCCCCC)COC(=O)OCCCN(CC)CC (stereo not shown) [Compound 49, reference compound] ?
[reply] 0.028
